TARGET_ENTITY: UniProtKB Q07820
ASSAY_PROCEDURE: Inhibition of Mcl-1 by the fluorescence polarisation technique
Format: binding
CONDITION_LABEL: Method 1 (not underlined) or Method 2 (underlined); underlining not visible; first value where cell prints two; read-out: IC50 (M) Mcl-1 FP
OBSERVATION_TYPE: IC50 (M)

>>> df
                                   molecule  observation_type  unit_symbol  reported_result
0  COc1ccccc1-c1nccc(COc2ccccc2C[C@@H](Oc2ncnc3oc(-c4ccc(F)cc4)c(-c4ccc(OCCN5CCN(C)CC5)c(Cl)c4C)c23)C(=O)O)n1              IC50            M          3.8e-09

[a] CCc1c(-c2cccc3ccccc23)c2c(N[C@H](Cc3ccccc3)C(=O)O)ncnc2n1CCc1ccccc1 (single isomer, unassigned) [Example 16]
[b] C=CCn1c(CC)c(-c2cccc(Cl)c2C)c2c(NC(Cc3ccccc3)C(=O)O)ncnc21 (single isomer, unassigned) [Example 24]
[c] COc1ccccc1CC(Nc1ncnc2oc(-c3ccc(F)cc3)c(-c3ccc(OCCN4CCN(C)CC4)c(Cl)c3C)c12)C(=O)O (stereo not shown)
Enquiry: Order the records, beginning with the lowest IC50 and ending with the highest. Kindly provide the labels arranged according to the requested ordering.
Return: c, a, b

---

TARGET_ENTITY: Mcl-1 protein (Homo sapiens)
ASSAY_PROCEDURE: Inhibition of Mcl-1 by the fluorescence polarisation technique
Type: binding
CONDITION_LABEL: Method 1 (not underlined) or Method 2 (underlined); underlining not visible; first value where cell prints two; read-out: IC50 (M) Mcl-1 FP
OBSERVATION_TYPE: IC50 (M)

Please review the entries below; each comes with its answer.
MOLECULE	REPORTED_RESULT
COc1ccccc1CC(Oc1cccc2oc(-c3ccc(F)cc3)c(-c3ccc(OCCN4CCN(C)CC4)c(Cl)c3C)c12)C(=O)O (stereo not shown) [Example 62]	8.2e-07
CCc1c(-c2cccc3ccccc23)c2c(N[C@H](Cc3ccccc3)C(=O)O)ncnc2n1CCOc1cccc2ccccc12 (single isomer, unassigned) [Example 14]	1.2e-05

[A] Cc1c(-c2c(-c3ccc(F)cc3)oc3cc(F)cc(OC(Cc4ccccc4OCC(F)(F)F)C(=O)O)c23)ccc(OCCN2CCN(C)CC2)c1Cl (stereo not shown) [Example 66]
[B] COc1ccccc1-c1nccc(COc2ccccc2C[C@@H](Nc2ncnc3oc(-c4ccc(F)cc4)c(-c4ccc(OCCN5CCN(C)CC5)c(Cl)c4C)c23)C(=O)O)n1 [Example 9]
Enquiry: Returns the identifier with the smallest measured IC50 among A and B . Returns: label corresponding to the selected item.
Return: B
(B: 8.6e-08 M, A: 1.6e-06 M)

---

TARGET_ENTITY: Mcl-1 protein (Homo sapiens)
ASSAY_PROCEDURE: Inhibition of Mcl-1 by the fluorescence polarisation technique
Format: binding
CONDITION_LABEL: Method 1 (not underlined) or Method 2 (underlined); underlining not visible; first value where cell prints two; read-out: IC50 (M) Mcl-1 FP
OBSERVATION_TYPE: IC50 (M)

COMPOUND	TARGET_ENTITY	IC50, M
CCc1c(-c2cccc3ccccc23)c2c(N[C@H](Cc3ccccc3)C(=O)O)ncnc2n1CCOc1cccc2ccccc12 (single isomer, unassigned) [Example 15]	Mcl-1 protein (Homo sapiens)	7.3e-06

[a] Cc1c(-c2c(-c3ccc(F)cc3)oc3ncnc(O[C@H](Cc4ccccc4OCc4cnccn4)C(=O)O)c23)ccc(OCCN2CCN(C)CC2)c1Cl
[b] CCc1c(-c2cccc3ccccc23)c2c(N[C@H](Cc3ccccc3)C(=O)O)ncnc2n1CCCc1ccccc1 (single isomer, unassigned) [Example 19]
[c] Cn1cc(-c2cccc3ccccc23)c2c(N[C@H](Cc3ccccc3)C(=O)O)ncnc21
[d] COc1ccccc1CC(Oc1cccc2c(Cl)c(-c3ccc(F)cc3)n(-c3ccc(OCCN4CCN(C)CC4)c(Cl)c3C)c12)C(=O)O (stereo not drawn)
[e] COc1ccccc1-c1nccc(COc2ccccc2CC(Oc2cccc3c2c(-c2ccc(OCCN4CCN(C)CC4)c(Cl)c2C)c(-c2ccc(F)cc2)n3C)C(=O)O)n1 (single isomer, unassigned) [Example 68]
Enquiry: Sequence the entries by IC50, beginning with the highest number. Kindly provide the labels arranged according to the requested ordering.
Return: c, b, e, d, a
(c: 1.8e-05 M, b: 3.3e-06 M, e: 1.2e-06 M, d: 1.7e-07 M, a: 2.9e-08 M)

---

TARGET_ENTITY: Mcl-1 protein (Homo sapiens)
ASSAY_PROCEDURE: Inhibition of Mcl-1 by the fluorescence polarisation technique
Type: binding
CONDITION_LABEL: Method 1 (not underlined) or Method 2 (underlined); underlining not visible; first value where cell prints two; read-out: IC50 (M) Mcl-1 FP
OBSERVATION_TYPE: IC50 (M)

MOLECULE	UNIT_SYMBOL	IC50
CCc1c(-c2cccc(Cl)c2C)c2c(NC(Cc3ccccc3)C(=O)O)ncnc2n1CC1CC1 (stereo not shown) [Example 23]	M	6.8e-06
C=CCCn1c(Br)c(-c2cccc(Cl)c2C)c2c(NC(Cc3ccccc3)C(=O)O)ncnc21 (single isomer, unassigned) [Example 42]	M	4.5e-07
CCc1c(-c2cccc3ccccc23)c2c(N[C@H](Cc3ccccc3)C(=O)O)ncnc2n1Cc1ccccc1 (single isomer, unassigned) [Example 12]	M	5.6e-07
COc1ccccc1-c1nccc(COc2ccccc2CC(Nc2ncnc3oc(-c4ccc(F)cc4)c(-c4ccc(OCCN5CCN(C)CC5)c(Cl)c4C)c23)C(=O)O)n1 (stereo not shown) [Example 8]	M	6.6e-09

[1] COc1ccccc1C[C@@H](Oc1ncnc2oc(-c3ccc(F)cc3)c(-c3ccc(OCCN4CCN(C)CC4)c(Cl)c3C)c12)C(=O)O [Example 3]
[2] COc1ccccc1CC(Oc1cccc2cc(-c3ccco3)n(-c3ccc(OCCN4CCN(C)CC4)c(Cl)c3C)c12)C(=O)O (stereo not shown) [Example 59]
[3] CC#CCn1c(CC)c(-c2cccc(Cl)c2C)c2c(NC(Cc3ccccc3)C(=O)O)ncnc21 (single isomer, unassigned) [Example 27]
Enquiry: Sequence the entries by IC50, beginning with the highest number. Kindly provide the labels arranged according to the requested ordering.
Return: 3, 2, 1

---

TARGET_ENTITY: Mcl-1 protein (Homo sapiens, UniProt Q07820)
Sequence (Q07820 whole entry): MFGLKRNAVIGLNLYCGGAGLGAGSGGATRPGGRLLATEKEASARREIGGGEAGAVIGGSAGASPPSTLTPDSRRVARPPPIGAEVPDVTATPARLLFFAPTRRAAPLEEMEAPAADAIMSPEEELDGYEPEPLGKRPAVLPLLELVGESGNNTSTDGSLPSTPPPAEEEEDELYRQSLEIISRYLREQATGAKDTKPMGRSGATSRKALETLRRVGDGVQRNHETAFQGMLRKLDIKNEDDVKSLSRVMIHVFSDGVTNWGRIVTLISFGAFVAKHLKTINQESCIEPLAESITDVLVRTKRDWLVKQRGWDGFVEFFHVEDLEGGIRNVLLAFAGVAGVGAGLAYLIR
ASSAY_PROCEDURE: Inhibition of Mcl-1 by the fluorescence polarisation technique
Type: binding
CONDITION_LABEL: Method 1 (not underlined) or Method 2 (underlined); underlining not visible; first value where cell prints two; read-out: IC50 (M) Mcl-1 FP
OBSERVATION_TYPE: IC50 (M)

COMPOUND	TARGET_ENTITY	REPORTED_RESULT
COc1ccccc1-c1nccc(COc2ccccc2CC(Oc2cccc3c2c(-c2ccc(OCCN4CCN(C)CC4)c(Cl)c2C)c(-c2ccc(F)cc2)n3C)C(=O)O)n1 (single isomer, unassigned) [Example 69]	Mcl-1 protein (Homo sapiens, UniProt Q07820)	2.4e-08

[P] COc1ccccc1CC(Oc1cccc2cc(-c3ccc(F)o3)n(-c3ccc(OCCN4CCN(C)CC4)c(Cl)c3C)c12)C(=O)O (stereo not drawn)
[Q] CCc1c(-c2cccc(Cl)c2C)c2c(NC(Cc3ccccc3)C(=O)O)ncnc2n1Cc1ccccc1 (single isomer, unassigned) [Example 36]
Enquiry: So which one has the bigger IC50 here, P or Q ? Returns: label corresponding to the selected item.
Return: Q
(Q: 6.5e-06 M, P: 1.9e-08 M)
